# Tested on: A498 renal
# EXPERIMENT NOTES: NCI tumour cell line growth inhibition, 48 h
Listed here: items and their measured TGI.

For orientation, consider the following solved cases.
INSERT INTO results (molecule, observed_value) VALUES
  ('CC(NNC(=O)CC(=O)N(C(=O)c1ccccc1)c1ccc(Cl)cc1)c1cc2ccccc2oc1=O (configuration not stated)', '> 10 µM'),
  ('COc1ccc(-c2c(C#N)c(O)n(NS(=O)(=O)c3ccc(C)cc3)c(=O)c2C#N)cc1', '> 100 µM'),
  ('CCOC(=O)c1csc(NC(=O)CN2CCN(C)CC2)n1', '> 100 µM'),
  ('CC(C)=C1C(=O)C[C@]2(C)C[C@H]3/C(=C(/C)CCC12)CC[C@@]3(C)O (some centres not stated)', '> 50 µM'),
  ('NS(=O)(=O)c1ccc(N(/C=C/C(=O)C(F)(F)F)CC(=O)c2ccc(Cl)cc2)cc1', '> 100 µM'),
  ('COc1cc(/C=C/C(=O)O)ccc1C(=O)OCc1ccccc1', '> 100 µM');

Measured TGI, CC(C)(C)C(=O)OC(N)/C=C/c1ccccc1 (configuration not stated) : > 100 µM

The measured TGI associated with CS(=O)(=O)CCCn1c(=O)c(Oc2ccc(F)cc2F)cc2cnc(NC3CCOCC3)nc21 reads > 25 µM

So for CC(=O)n1c2c(c(=O)n1-c1ccccc1)S(=O)CCC2 (configuration not stated) , the logged TGI turned out to be > 100 µM

Notebook: Nc1nc(N)c(N=Nc2ccc([As](=O)(O)O)cc2)c(=O)[nH]1 , TGI read as > 100 µM

Value of TGI reported for the molecule CCOC(=O)c1ccc(NC(=O)O/N=C(/Cl)CCl)cc1 is > 100 µM

# TGI of COc1ccc(CCN=C2OCc3ccccc32)cc1OC = > 100 µM

----------
# Test system: HCT-116 colon
# EXPERIMENT NOTES: NCI tumour cell line growth inhibition, 48 h
REPORTED PROPERTY: TGI

INSERT INTO results (compound, target_desc, reported_property, observed_value) VALUES
  ('N=c1ccn2c(n1)OC1C(O)C(CO)OC12 (stereo unspecified)', 'HCT-116 colon', 'TGI', '> 1000 µM');

Fill in: HCT-116 colon TGI for O=C1c2ccccc2C2(O)c3cc4ccccc4cc3OC12O (stereo unspecified) = > 100 µM

Value (TGI, HCT-116 colon) for record NC12Oc3cc(O)cc(O)c3C1(c1ccc(Cl)cc1)c1c(O)cc(O)cc1O2 (stereo unspecified) = > 100 µM

HCT-116 colon data for CC(C)(C)[Si](C)(C)OC1/C(=C/C#N)C(n2ccc(=O)[nH]c2=O)OC1CO (stereo unspecified) ; its TGI: > 100 µM

Considering CC12CC(C#N)(C#N)C(C#N)(CO1)C(=N)O2 (stereo unspecified) , its TGI with HCT-116 colon was recorded as > 100 µM

Lab entry: HCT-116 colon assay, compound Cc1ccc(Cl)cc1Nc1nc(C(F)(F)F)ccc1C(=O)N1CCN(c2cccc(Cl)c2)CC1 , TGI = > 100 µM

----------
# System: EKVX NSCLC
# EXPERIMENT NOTES: NCI tumour cell line growth inhibition, 48 h
REPORTED PROPERTY: TGI

Example cases with answers are listed next.
INSERT INTO measurements (compound, reported_property, observed_value) VALUES
  ('O=c1c2c(-c3ccccc3)onc2n(-c2ccccc2)c(=O)n1-c1ccccc1', 'TGI', '59.5 µM'),
  ('CCCCCCC[CH2][Sn]1([CH2]CCCCCCC)[O]C(=O)c2cccnc2[S]1', 'TGI', '> 100 µM'),
  ('CCc1c(OC(C)=O)c2c(NC3OC(COC(C)=O)C(OC(C)=O)C(OC(C)=O)C3OC(C)=O)nc(OC)nc2oc1=O (centres undefined)', 'TGI', '> 100 µM'),
  ('CC(=O)OC1(C#N)CC2OC1C1C2N=NN1C(=O)OC(C)(C)C (centres undefined)', 'TGI', '> 100 µM'),
  ('C1CSCCSCCS1', 'TGI', '> 100 µM'),
  ('COc1ccc(C(OC(C)=O)C2C(=C(C#N)C#N)c3ccccc3C2=C(C#N)C#N)cc1 (centres undefined)', 'TGI', '> 100 µM');

The compound c1ccc(SC2CCSc3ccccc3C2Sc2ccccc2)cc1 (centres undefined) showed TGI equal to > 100 µM

// sample CCCn1c(N)c(C(=O)N/N=C(/C)c2cc3cccc(OC)c3o2)sc1=S , its TGI was > 100 µM

// recorded TGI for C=Cc1c(C)c2cc3nc(cc4[nH]c(cc5nc(cc1[nH]2)C(C)=C5CCC(=O)O)c(CCC(=O)OC)c4C)[C@@]1(C)C3=CC=C(C(=O)OC)[C@H]1C(=O)OC : 5.38 µM

TGI recorded for this compound, Cc1ccc(S(=O)(=O)N/N=C/c2oc(-c3ccncc3)c(-c3ccncc3)c2[N+](=O)[O-])cc1 , is > 100 µM

GET /value?item= C=CC(=O)N1CCC(C2CCNc3c(C(N)=O)c(-c4ccc(Oc5ccccc5)cc4)nn32)CC1 (centres undefined) &field=TGI returns 42 µM

Measured TGI of COc1cc(C2c3cc4c(cc3C(O)C(CO)C2CO)OCO4)cc(OC)c1OC (centres undefined) : > 71 µM

Input CC(C)=CCc1c(O)ccc2ccc(=O)oc12 . Output TGI: > 100 µM

Measured TGI, Cc1ccsc1/C=N/Nc1ccc2ccccc2n1 : > 100 µM

----------
The entries below are paired with their reported TGI.
# Test system: K-562 leukemia
# EXPERIMENT NOTES: NCI tumour cell line growth inhibition, 48 h

INSERT INTO measurements (compound, observed_value) VALUES
  ('CC(C)(C)c1cc(C(=O)/C=C/C=C/c2ccccc2)cc(C(C)(C)C)c1O', '> 100 µM'),
  ('CC(=O)OC1(C#N)CC2OC1C1C2N=NN1C(=O)OC(C)(C)C (stereo not drawn)', '> 100 µM');

Turning now to a further record.
TGI in this record for CC(=O)OC1O[C@@H](C(C)(C)O)CC[C@@H]1[C@H]1CC[C@@]2(C)C3=C(CC[C@]12C)[C@@]1(C)C[C@@H](OC(=O)CC(C)(O)CC(=O)O)[C@H](OC(C)=O)C(C)(C)C1CC3 (stereo partly drawn) : 89.1 µM

----------
Reported TGI values are given for each entry in this list.
# System: HOP-92 NSCLC
# EXPERIMENT NOTES: NCI tumour cell line growth inhibition, 48 h

For this compound ( COc1cc(C2SCC(=O)N2c2ccc(Cl)c(Cl)c2)cc(OC)c1OC (stereo not drawn) ), measured TGI is > 100 µM

Reported TGI ( CC(=O)Nc1ccc(-c2nc3cc(Cl)ccc3o2)cc1 ) = > 50 µM

// sample COc1ccccc1N1CCN(CCCn2c(=O)c3c(OC)nc(C)cc3c(=O)n2-c2ccccc2)CC1 , its TGI was > 100 µM

----------
// TGI lookup, one value per entry
# Test system: NCI-H226 lung
# EXPERIMENT NOTES: NCI tumour cell line growth inhibition, 48 h

INSERT INTO assay_data (molecular_string, observed_value) VALUES
  ('COc1cc(-c2nn(-c3cccc(NC(=O)Nc4ccc(Cl)c(Cl)c4)c3)cc2-c2ccncc2)ccc1Cl', '> 50 µM'),
  ('COc1c(OC)c(OC)c(C(=O)/C=C/c2ccccc2)c(OC)c1OC', '38.4 µM');

TGI reported for this compound O=C(O)CCN(CCC(=O)O)c1ccc(/C=C2\SC(=S)NC2=O)cc1 : > 100 µM

----------
# Lookup of reported GI50 keyed by entry
# Test system: SF-539 CNS
# EXPERIMENT NOTES: NCI tumour cell line growth inhibition, 48 h

INSERT INTO results (compound, target_desc, reported_property, observed_value) VALUES
  ('COc1cccc(/C=N/[N-]C(=O)c2ccncc2)c1[O-].[Cu+2].[OH3+]', 'SF-539 CNS', 'GI50', '18.2 µM');

Documented GI50 of CCOc1ccc2nc(S/C(=C/C=C(C#N)C#N)c3ccc(C)cc3)sc2c1 : 26 µM

Per the records, this compound ( C=CC(=O)N1CCC(C2CCNc3c(C(N)=O)c(-c4ccc(Oc5ccccc5)cc4)nn32)CC1 (centres undefined) ) has GI50 equal to 13.5 µM

# GI50 of COc1cc(C2c3cc4c(cc3C(O)C(CO)C2CO)OCO4)cc(OC)c1OC (centres undefined) = 0.335 µM

----------
# System: HL-60(TB) leukemia
# EXPERIMENT NOTES: NCI tumour cell line growth inhibition, 48 h
Quick reference: TGI of the listed items.

Check out these entries, answers already filled in.
INSERT INTO assay_data (compound, reported_property, observed_value) VALUES
  ('COc1cc(-c2nn(-c3cccc(NC(=O)Nc4ccc(Cl)c(Cl)c4)c3)cc2-c2ccncc2)ccc1Cl', 'TGI', '> 50 µM'),
  ('CCOC(=O)C1=C(N)Oc2ccc(Br)cc2C1C(C#N)C(=O)OCC (centres undefined)', 'TGI', '> 100 µM'),
  ('Cc1[nH]c2ccccc2c1-c1cc(-c2cc(-c3c(C)[nH]c4ccccc34)on2)no1', 'TGI', '> 100 µM'),
  ('COC(=O)CN(C)P(=O)(N1CC1)N1CC1', 'TGI', '> 100 µM'),
  ('COc1ccc(C(O)c2nccn2C)c(OC)c1 (centres undefined)', 'TGI', '> 100 µM');

// COC(=O)[C@]1(C)CCCC2(C)C1CC[C@H]1C=C(C)[C@H]3CCC12C3 (some centres undefined) : TGI value = > 100 µM

The measured TGI associated with CCCC(O)C(NC(=O)CCl)C(=O)O (centres undefined) reads > 100 µM

The reported TGI of the compound COc1cc2c3c(c4cc(OC)c(OC)cc4c2cc1OC)C(=O)C1CCC(=O)N1C3 (centres undefined) was > 100 µM

Value of measured TGI for the entry COc1ccc2[nH]cc(-c3nc(-c4c[nH]c5ncccc45)cs3)c2c1 : > 100 µM

Record summary for CCN(CC)c1nc(-c2ccc(Cl)cc2Cl)nc2ccccc12 : reported TGI = > 100 µM

Noted for COc1ccccc1N1CCN(CCCn2c(=O)c3c(OC)nc(C)cc3c(=O)n2-c2ccccc2)CC1 : its TGI reads > 100 µM

The compound CCCCCCC[CH2][Sn]1([CH2]CCCCCCC)[O]C(=O)c2cccnc2[S]1 showed TGI equal to > 100 µM

Looking up O=C(O)CCN(CCC(=O)O)c1ccc(/C=C2\SC(=S)NC2=O)cc1 , I found its TGI recorded as > 100 µM

Quick note, TGI for O=c1cc(-c2ccccc2)[nH]c2c(S)cccc12 landed at > 100 µM

Sample CCOC(=O)c1ccc(C(=O)/C(C#N)=C2\CCCN2C)[nH]1 ; TGI observed: > 100 µM

The recorded TGI for CCSc1[nH]c(Nc2nc(-c3ccccc3)n(-c3ccccc3)n2)c(C(N)=O)c1C(N)=O is > 10 µM

Record O=C1NN=C2C=C(c3ccc(Cl)cc3)CC(c3cccc(Cl)c3)C12 (centres undefined) . Reported TGI: 49.1 µM

TGI measured on Cc1nc2cnc(N)c(C#Cc3cncc(C(=O)Nc4ccc(CN5CCN(C)CC5)c(C(F)(F)F)c4)c3)c2nc1C = 3.8 µM

get_value(item= COc1cc(CNCCCN2C(=O)c3ccc4c5c(ccc(c35)C2=O)C(=O)N(CCCNCc2cc(OC)c(OC)c(OC)c2)C4=O)cc(OC)c1OC , readout=TGI) returns 1.97 µM
